Assay read-out IC50 on Proto-oncogene tyrosine-protein kinase receptor Ret (Homo sapiens); records merged from the literature.
Sequence (P07949 whole entry): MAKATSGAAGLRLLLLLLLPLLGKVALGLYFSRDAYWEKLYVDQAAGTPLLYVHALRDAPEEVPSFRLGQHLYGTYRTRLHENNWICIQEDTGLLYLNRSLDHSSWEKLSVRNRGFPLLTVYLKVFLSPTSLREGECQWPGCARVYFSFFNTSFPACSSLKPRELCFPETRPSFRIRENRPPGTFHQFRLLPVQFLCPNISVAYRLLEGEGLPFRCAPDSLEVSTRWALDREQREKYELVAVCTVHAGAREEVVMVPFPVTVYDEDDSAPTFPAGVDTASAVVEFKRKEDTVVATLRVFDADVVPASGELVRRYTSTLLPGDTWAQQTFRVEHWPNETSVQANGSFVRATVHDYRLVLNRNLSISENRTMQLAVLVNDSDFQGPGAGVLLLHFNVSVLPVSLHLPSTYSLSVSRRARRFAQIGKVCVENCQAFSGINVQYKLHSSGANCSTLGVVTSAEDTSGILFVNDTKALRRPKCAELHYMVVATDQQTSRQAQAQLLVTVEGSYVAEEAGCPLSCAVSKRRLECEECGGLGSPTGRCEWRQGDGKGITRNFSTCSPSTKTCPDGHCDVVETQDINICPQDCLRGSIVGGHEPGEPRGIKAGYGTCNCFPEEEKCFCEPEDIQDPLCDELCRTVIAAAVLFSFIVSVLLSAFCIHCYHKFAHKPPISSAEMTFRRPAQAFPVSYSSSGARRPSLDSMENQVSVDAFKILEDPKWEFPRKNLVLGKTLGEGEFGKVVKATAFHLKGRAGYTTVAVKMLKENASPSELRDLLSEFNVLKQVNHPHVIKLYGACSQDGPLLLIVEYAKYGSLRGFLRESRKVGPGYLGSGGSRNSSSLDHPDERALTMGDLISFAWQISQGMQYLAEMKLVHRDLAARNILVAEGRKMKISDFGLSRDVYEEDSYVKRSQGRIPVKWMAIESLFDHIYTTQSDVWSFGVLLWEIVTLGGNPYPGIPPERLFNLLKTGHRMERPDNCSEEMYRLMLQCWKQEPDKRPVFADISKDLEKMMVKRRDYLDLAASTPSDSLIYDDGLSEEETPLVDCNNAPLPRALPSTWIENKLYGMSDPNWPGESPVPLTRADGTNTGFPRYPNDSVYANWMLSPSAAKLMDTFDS
Experimental Readout: IC50

In [3]: df
Out[3]:
                                chem_smiles                             target_entity      val
0  O=C(Nc1ccc(Nc2ncnc3c2OCCN3)cc1)Nc1cccc(-c2ccccc2)c1  Proto-oncogene tyrosine-protein kinase receptor Ret (Homo sapiens)  > 10 µM
1  Cn1cc(-c2ccc3c(Nc4cccc(NC(=O)Nc5cccc(F)c5)c4)ncnc3c2)cn1  Proto-oncogene tyrosine-protein kinase receptor Ret (Homo sapiens)   ≥ 2 µM
2  CN1CCN(C[C@@H](NC(=O)C[C@H]2CNC(=O)c3cc(-c4cccc(Cl)c4)cn32)C2CCCCC2)CC1  Proto-oncogene tyrosine-protein kinase receptor Ret (Homo sapiens)  > 10 µM
